Target: human DGKα (Homo sapiens (Human))
Sequence (P23743 whole entry): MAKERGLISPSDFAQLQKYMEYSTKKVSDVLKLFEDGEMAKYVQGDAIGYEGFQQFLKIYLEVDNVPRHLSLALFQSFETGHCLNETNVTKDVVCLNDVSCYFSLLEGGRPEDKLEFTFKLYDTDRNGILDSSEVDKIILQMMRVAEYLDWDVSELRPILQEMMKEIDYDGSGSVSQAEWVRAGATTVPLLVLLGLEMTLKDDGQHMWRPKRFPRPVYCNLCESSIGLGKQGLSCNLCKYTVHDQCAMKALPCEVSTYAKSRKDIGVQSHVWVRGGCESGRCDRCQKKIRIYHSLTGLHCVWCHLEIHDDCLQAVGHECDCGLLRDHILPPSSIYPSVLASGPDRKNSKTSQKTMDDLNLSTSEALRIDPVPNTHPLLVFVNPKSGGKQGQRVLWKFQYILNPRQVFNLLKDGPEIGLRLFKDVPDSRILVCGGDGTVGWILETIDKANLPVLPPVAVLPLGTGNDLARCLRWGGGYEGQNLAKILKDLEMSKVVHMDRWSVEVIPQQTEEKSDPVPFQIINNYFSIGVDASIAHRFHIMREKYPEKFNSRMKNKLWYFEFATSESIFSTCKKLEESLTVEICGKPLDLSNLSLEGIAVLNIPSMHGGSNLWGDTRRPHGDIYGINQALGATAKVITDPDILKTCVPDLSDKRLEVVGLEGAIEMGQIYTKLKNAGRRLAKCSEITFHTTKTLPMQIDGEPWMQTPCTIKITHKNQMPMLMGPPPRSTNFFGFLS
Assay: DGKα Biochemical Activity Assay (ADP-Glo)
Settings: recombinant DGKα 1 nM, 100 μM ATP, 18:1 DAG/POPS/octylglucoside micelles, 1 hour at 25° C.; geometric mean; read-out: HTBS DGKa 1X ATP KM IC50
Would you mind telling me the reported IC50 of each entry?
One number for each entry, in nM.

1. Cc1nnc2nc(N3CCOCc4c(C#CC(C)(C)C#N)cccc43)c3c(F)cncc3n12
3.84
2. CC1(C#Cc2cccc3c2CCCN3c2nc3nncn3c3cncc(F)c23)CC1
3.39
3. Cc1nnc2nc(N3CCCc4c(C#CC5(C(F)(F)F)CC5)cccc43)c3ncccc3n12
41.9

For the next question, use this compound.
May I ask what IC50 has been recorded for Cc1nnc2nc(N(CC(F)F)c3cc(F)cc(C#CC4(C)CC4)c3)c3c(F)cncc3n12 ?
12.6

====

Molecular target: human DGKα (Homo sapiens (Human))
Test: DGKα Biochemical Activity Assay (ADP-Glo)
Details: recombinant DGKα 1 nM, 100 μM ATP, 18:1 DAG/POPS/octylglucoside micelles, 1 hour at 25° C.; geometric mean; read-out: HTBS DGKa 1X ATP KM IC50
From the text: Alternatively, the enzymatic activity of human DGKα was monitored in a biochemical assay in the presence or absence of compounds and using micelles containing 18:1 Diacylglycerol (DAG), 16:0-18:1 PS (POPS) and Octylglucoside as substrate. DGKα activity led to conversion of DAG and ATP to Phosphatidic Acid (PA) and ADP. Levels of ADP were monitored by bioluminescence using the ADP-Glo Kinase Assay (Promega) and were indicative of DGKα activity. […]
quantity-measured: IC50
Lab note: write values as number then unit, every time.

Sample answers from the record:
1. Cc1nnc2nc(N3CCCCc4c(Br)cccc43)c3c(F)cncc3n12 [Example 69]
220 nM
2. CC1(C#Cc2cc(F)cc(N(CC(F)F)c3nc4nncn4c4cncc(F)c34)c2)CC1 [Example 45]
52.1 nM
3. COc1ccc2c(N(C)c3cccc(C#CC(C)(C)O)c3)nc3nncn3c2n1 [Example 114]
75.4 nM

May I ask what IC50 has been recorded for Cc1nnc2nc(N3CCCc4c(C#CC(C)(C)O)cccc43)c3ccc(C(F)(F)F)nc3n12 [Example 145] ?
59.6 nM

====

Would you mind telling me the reported IC50 of each entry?
Target: human DGKα (Homo sapiens (Human))
Experiment: DGKα Biochemical Activity Assay (ADP-Glo)
Conditions: recombinant DGKα 1 nM, 100 μM ATP, 18:1 DAG/POPS/octylglucoside micelles, 1 hour at 25° C.; geometric mean; read-out: HTBS DGKa 1X ATP KM IC50
Excerpt: Alternatively, the enzymatic activity of human DGKα was monitored in a biochemical assay in the presence or absence of compounds and using micelles containing 18:1 Diacylglycerol (DAG), 16:0-18:1 PS (POPS) and Octylglucoside as substrate. DGKα activity led to conversion of DAG and ATP to Phosphatidic Acid (PA) and ADP. Levels of ADP were monitored by bioluminescence using the ADP-Glo Kinase Assay (Promega) and were indicative of DGKα activity. […]
Numbers only, in nM.

Sample answers from the record:
1) Cc1nnc2nc(N3CCCc4c(C#CC5(C(F)F)CC5)cncc43)c3c(F)cncc3n12
20.1
2) Cc1nnc2nc(N3CCCCc4c(C#CC5(C(F)F)CC5)cccc43)c3c(F)cncc3n12
3.96
3) CCN(c1cc(F)cc(C#CC2(C(F)(F)F)CC2)c1)c1nc2nncn2c2cncc(F)c12
12

May I ask what IC50 has been recorded for Cc1nnc2nc(N3CCOCc4c(Br)cccc43)c3c(F)cncc3n12 ?
151
